Reference source: paper PMC12385147

protocol-description: Pharmacokinetics in SD rats
Type: in vivo
experimental-conditions: both sexes, rat, plasma, po; SD rats, 10 mg/kg
Description: Male and female SD rats (SLRC Laboratory Animal Inc., Shanghai, China) were used for the study. In the oral (PO) administration, 3 rats per group were given a single 10 mg/kg dose. Blood samples (100 μL per time point) were collected via jugular vein cannula and taken at 5, 15, and 30 min, and 1, 2, 4, 8, and 24 h post-dose. […] Compound concentrations were determined by LC/MS/MS (Shimadzu LC-30AD), and pharmacokinetic parameters, including Cmax, Tmax, T1/2, and AUC0-inf, were calculated.
endpoint-label: Cmax (ng/mL)
Express it in ng/mL; write the number only.

Tell me the measured Cmax of Cc1c(C(=O)Nc2ccc(Oc3ccnc(Nc4cccc(OC5CCN(C)CC5)c4)n3)cc2)c(=O)n(-c2ccccc2)n1C [compound 17c] , please. 740

* * *

Answer each item with its documented IC50.
target: Mer kinase (Homo sapiens, UniProt Q12866)
Sequence (Q12866 21-999): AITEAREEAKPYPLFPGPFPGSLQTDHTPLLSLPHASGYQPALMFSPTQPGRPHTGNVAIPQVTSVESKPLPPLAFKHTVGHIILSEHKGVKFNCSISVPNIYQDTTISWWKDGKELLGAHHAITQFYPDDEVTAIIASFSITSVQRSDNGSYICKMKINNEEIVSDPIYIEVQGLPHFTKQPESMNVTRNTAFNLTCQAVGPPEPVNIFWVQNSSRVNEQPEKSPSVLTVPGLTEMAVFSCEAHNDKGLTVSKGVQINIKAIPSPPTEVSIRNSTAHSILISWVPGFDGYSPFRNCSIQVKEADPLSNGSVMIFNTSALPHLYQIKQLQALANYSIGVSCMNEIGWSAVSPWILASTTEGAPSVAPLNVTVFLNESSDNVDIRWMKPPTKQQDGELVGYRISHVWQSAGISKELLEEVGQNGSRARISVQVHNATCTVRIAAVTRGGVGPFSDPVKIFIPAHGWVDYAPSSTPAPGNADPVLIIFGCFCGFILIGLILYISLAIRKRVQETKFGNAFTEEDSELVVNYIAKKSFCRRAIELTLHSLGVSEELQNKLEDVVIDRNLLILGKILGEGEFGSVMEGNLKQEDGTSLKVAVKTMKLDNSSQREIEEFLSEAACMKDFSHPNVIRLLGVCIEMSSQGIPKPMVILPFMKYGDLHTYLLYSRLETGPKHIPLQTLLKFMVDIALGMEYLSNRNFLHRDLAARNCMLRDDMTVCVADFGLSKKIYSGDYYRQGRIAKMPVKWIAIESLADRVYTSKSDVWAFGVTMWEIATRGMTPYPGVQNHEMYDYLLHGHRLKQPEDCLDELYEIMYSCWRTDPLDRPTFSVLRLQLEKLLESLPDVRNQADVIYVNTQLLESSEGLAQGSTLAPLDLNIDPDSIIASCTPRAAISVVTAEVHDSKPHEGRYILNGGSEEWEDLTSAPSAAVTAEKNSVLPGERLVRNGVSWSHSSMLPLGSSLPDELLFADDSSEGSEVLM
Value expressed in nM; do not type the unit.

# query: IC50 | item CN(C)CCNCC(=O)Nc1ccc(Nc2nccc(Oc3ccc(NC(=O)C4(C(=O)Nc5ccc(F)cc5)CC4)cc3)n2)cc1 [compound 13j] | system: Mer kinase (Homo sapiens, UniProt Q12866) 13.1

Checklist item: IC50 tested on Mer kinase (Homo sapiens, UniProt Q12866), entry CC(=O)N1CCN(c2cccc(Nc3nccc(Oc4ccc(NC(=O)c5c(C)n(C)n(-c6ccccc6)c5=O)cc4)n3)c2)CC1 [compound 17f] , value? 5.5

Give IC50 (Mer kinase (Homo sapiens, UniProt Q12866)) of the following molecule: Cc1c(C(=O)Nc2ccc(Oc3ccnc(Nc4ccc(OC5CCN(C)CC5)cc4)n3)cc2)c(=O)n(-c2ccccc2)n1C [compound 17a] 26.2

API: value(readout=IC50, system=Mer kinase (Homo sapiens, UniProt Q12866)) for record COCCN1CCN(CC(=O)Nc2ccc(Nc3nccc(Oc4ccc(NC(=O)C5(C(=O)Nc6ccc(F)cc6)CC5)cc4)n3)cc2)CC1 [compound 13k] 37.3
